Give TGI for every item shown.
# Test system: OVCAR-4 ovarian
# assayText: NCI tumour cell line growth inhibition, 48 h

Below, each entry is followed by its recorded TGI result.
>  <compound>
CCOC(=O)C(NC(=O)c1cccc(Cl)c1)(N1CCN(c2cc3c(cc2F)c(=O)c(C(=O)O)cn3CC)CC1)C(F)(F)F (stereo not given)

>  <TGI>
53 µM

$$$$
>  <compound>
CCN(CCCl)c1ccc(NC(=O)c2cc(C(=O)NCCN(C)C)cc(C(=O)Nc3ccc(N(CC)CCCl)cc3)c2)cc1

>  <TGI>
43.5 µM

$$$$
>  <compound>
COC(=O)/C(=C/c1ccc(OC)cc1)c1cc(OC)c(OC)c(OC)c1

>  <TGI>
> 100 µM

$$$$

Each of the following entries comes with a recorded value; kindly state TGI for each.
1. CN(C)c1ccc(/C=C2\Cc3ccccc3C2=O)cc1Br
2. COc1ccc(NC(=S)Nc2cccc(C)n2)cc1
3. CSC(=NCCCN=C(NS(=O)(=O)c1ccc(Cl)cc1)SC)NS(=O)(=O)c1ccc(Cl)cc1
4. N#Cc1c(N)n(-c2nc3ccccc3s2)c(=O)c2cc([N+](=O)[O-])ccc12
5. NS(=O)(=O)C1CCCCC1C(=O)NNC(=O)C(=O)Nc1nc(=S)[nH][nH]1 (stereo not given)
6. O=C(Nc1cccc(C(F)(F)F)c1)Nc1ccc(OCc2nnc(-c3ccccc3)o2)c(F)c1
7. O=C(NCc1cccnc1)c1ccc([N+](=O)[O-])o1

["> 100 µM", "> 100 µM", "> 100 µM", "> 100 µM", "> 100 µM", "30.1 µM", "> 19.8 µM"]
